Test system: Lactobacillus plantarum HAC03
Method notes: in vitro Simulated Stomach Duodenum Passage (SSDP) probiotic survivability, lyophilized HAC03
Type: cell-based
Experimental context: Table 3; carbohydrate mixed with HAC03 lyophilizate
Let's look at some compounds and their measured Artificial Bile Juice Survivability (%).
Entry rule: numbers only, all in %.

Input: I'd like to know its Artificial Bile Juice Survivability (%). The compound in question is OC[C@@H](O)[C@@H](O)[C@H](O)[C@H](O)CO
Output: 11.77

Input: I'd like to know its Artificial Bile Juice Survivability (%). The compound in question is O=C(CO)[C@@H](O)[C@H](O)[C@H](O)CO
Output: 20.73

Input: I'd like to know its Artificial Bile Juice Survivability (%). The compound in question is OC[C@H]1O[C@H](O[C@H]2[C@H](O)[C@@H](O)C(O)O[C@@H]2CO)[C@H](O)[C@@H](O)[C@@H]1O (mixture of isomers)
Output: 33.79

Input: I'd like to know its Artificial Bile Juice Survivability (%). The compound in question is C[C@H](O)[C@H](O)[C@@H](O)[C@@H](O)C=O
Output: 18.25

Input: I'd like to know its Artificial Bile Juice Survivability (%). The compound in question is O=C[C@H](O)[C@@H](O)[C@H](O)CO
Output: 8.47

Input: I'd like to know its Artificial Bile Juice Survivability (%). The compound in question is O=C[C@@H](O)[C@H](O)[C@H](O)CO
Output: 9.45

Input: I'd like to know its Artificial Bile Juice Survivability (%). The compound in question is OC[C@@H](O)[C@@H](O)[C@H](O)[C@@H](O)CO
Output: 40.46

Input: I'd like to know its Artificial Bile Juice Survivability (%). The compound in question is OC[C@H]1O[C@H](O[C@H]2O[C@H](CO)[C@@H](O)[C@H](O)[C@H]2O)[C@H](O)[C@@H](O)[C@@H]1O
Output: 28.10

Input: I'd like to know its Artificial Bile Juice Survivability (%). The compound in question is OC[C@H]1O[C@@](CO)(O[C@H]2O[C@H](CO)[C@@H](O)[C@H](O)[C@H]2O)[C@@H](O)[C@@H]1O
Output: 42.99

====

Let's look at some molecules and their measured Artificial Gastric Juice log CFU/mL.
Tested on: Lactobacillus plantarum HAC03
Method notes: in vitro Simulated Stomach Duodenum Passage (SSDP) probiotic survivability, lyophilized HAC03
Assay type: cell-based
Experimental context: Table 3; carbohydrate mixed with HAC03 lyophilizate
Entry rule: numbers only, all in log CFU/mL.

Here are 8 molecules together with their reported answers.
{"Molecule": "OC[C@H]1O[C@H](O[C@H]2[C@H](O)[C@@H](O)C(O)O[C@@H]2CO)[C@H](O)[C@@H](O)[C@@H]1O (mixture of isomers) [Maltose]", "Target or test system": "Lactobacillus plantarum HAC03", "Units symbol": "log CFU/mL", "Artificial Gastric Juice log CFU/mL": 8.02}
{"Molecule": "OC[C@H]1O[C@@](CO)(O[C@H]2O[C@H](CO)[C@@H](O)[C@H](O)[C@H]2O)[C@@H](O)[C@@H]1O [Sucrose]", "Target or test system": "Lactobacillus plantarum HAC03", "Units symbol": "log CFU/mL", "Artificial Gastric Juice log CFU/mL": 7.99}
{"Molecule": "O=C(CO)[C@@H](O)[C@H](O)[C@H](O)CO [Fructose]", "Target or test system": "Lactobacillus plantarum HAC03", "Units symbol": "log CFU/mL", "Artificial Gastric Juice log CFU/mL": 7.67}
{"Molecule": "O=C[C@H](O)[C@@H](O)[C@H](O)CO [Xylose]", "Target or test system": "Lactobacillus plantarum HAC03", "Units symbol": "log CFU/mL", "Artificial Gastric Juice log CFU/mL": 7.50}
{"Molecule": "OC[C@H]1O[C@H](O[C@H]2O[C@H](CO)[C@@H](O)[C@H](O)[C@H]2O)[C@H](O)[C@@H](O)[C@@H]1O [Trehalose]", "Target or test system": "Lactobacillus plantarum HAC03", "Units symbol": "log CFU/mL", "Artificial Gastric Juice log CFU/mL": 7.65}
{"Molecule": "C[C@H](O)[C@H](O)[C@@H](O)[C@@H](O)C=O [Rhamnose]", "Target or test system": "Lactobacillus plantarum HAC03", "Units symbol": "log CFU/mL", "Artificial Gastric Juice log CFU/mL": 7.87}
{"Molecule": "O=C[C@@H](O)[C@H](O)[C@H](O)CO [Arabinose]", "Target or test system": "Lactobacillus plantarum HAC03", "Units symbol": "log CFU/mL", "Artificial Gastric Juice log CFU/mL": 7.12}
{"Molecule": "OC[C@@H](O)[C@@H](O)[C@H](O)[C@@H](O)CO [Sorbitol]", "Target or test system": "Lactobacillus plantarum HAC03", "Units symbol": "log CFU/mL", "Artificial Gastric Juice log CFU/mL": 8.00}

Please examine the following record next.
Input: Form field: Artificial Gastric Juice log CFU/mL recorded for OC[C@@H](O)[C@@H](O)[C@H](O)[C@H](O)CO [Mannitol] with Lactobacillus plantarum HAC03 (enter value)
Output: 7.18

====

Tested on: Lactobacillus plantarum HAC03
Method notes: in vitro Simulated Stomach Duodenum Passage (SSDP) probiotic survivability, lyophilized HAC03
Assay type: cell-based
Experimental context: Lactiplantibacillus plantarum, HAC03; Table 1; 0.1 M ingredient; pH 2.5, 37° C., 1 hour; read-out: Stomach Survivability (%)
Let's look at some molecules and their measured viability at 100000 µM.
Entry rule: numbers only, all in %.

Here are 2 molecules together with their reported answers.
{"Smi": "N[C@@H](CC(=O)O)C(=O)O", "Target or test system": "Lactobacillus plantarum HAC03", "Units symbol": "%", "viability at 100000 µM": 29.9}
{"Smi": "N[C@@H](Cc1ccc(O)cc1)C(=O)O", "Target or test system": "Lactobacillus plantarum HAC03", "Units symbol": "%", "viability at 100000 µM": 73.5}

Please examine the following record next.
Input: I'd like to know its viability at 100000 µM. The molecule in question is N[C@@H](Cc1c[nH]cn1)C(=O)O
Output: 56.6
